Reference source: patent US20030133931A1

Quick record: pKi, human histamine H4 receptor (Homo sapiens, UniProt Q9H3N8).
// field semantics: pKi = negative decimal log of concentration (mol/L)

Some entries whose results are on file:
CNCCc1c[nH]cn1; 7.32
NC(=NCc1ccc(Cl)cc1)SCCCc1cnc[nH]1; 8.31

Now for a further compound.
Give recorded pKi with human histamine H4 receptor (Homo sapiens, UniProt Q9H3N8) for the following compound: N=C(N)SCCc1cnc[nH]1
Sequence (Q9H3N8 whole entry): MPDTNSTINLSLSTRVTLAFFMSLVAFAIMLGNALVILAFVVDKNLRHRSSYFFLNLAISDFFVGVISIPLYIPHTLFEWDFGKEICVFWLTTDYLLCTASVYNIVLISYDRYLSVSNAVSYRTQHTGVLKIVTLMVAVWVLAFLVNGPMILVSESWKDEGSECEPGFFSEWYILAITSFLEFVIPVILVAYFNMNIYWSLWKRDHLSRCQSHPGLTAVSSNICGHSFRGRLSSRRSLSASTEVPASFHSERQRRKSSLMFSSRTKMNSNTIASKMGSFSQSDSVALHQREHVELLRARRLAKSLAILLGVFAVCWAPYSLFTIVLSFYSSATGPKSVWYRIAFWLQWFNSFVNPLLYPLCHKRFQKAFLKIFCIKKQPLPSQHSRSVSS
8.89

###

molecular target: guinea pig histamine H4 receptor (Cavia porcellus)
Sequence (Q91ZY3 1-389): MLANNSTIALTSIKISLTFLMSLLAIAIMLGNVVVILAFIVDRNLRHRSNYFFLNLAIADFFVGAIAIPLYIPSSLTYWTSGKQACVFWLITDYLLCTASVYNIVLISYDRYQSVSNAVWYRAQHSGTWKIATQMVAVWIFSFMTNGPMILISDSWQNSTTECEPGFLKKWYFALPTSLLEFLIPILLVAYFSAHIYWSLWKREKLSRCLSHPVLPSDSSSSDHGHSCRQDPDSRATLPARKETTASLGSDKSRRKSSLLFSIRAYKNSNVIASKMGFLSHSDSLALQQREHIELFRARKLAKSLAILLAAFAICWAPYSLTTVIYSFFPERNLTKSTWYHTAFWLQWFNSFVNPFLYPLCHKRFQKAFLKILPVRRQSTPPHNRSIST
pKi: −log10 of the molar value.
# label = true if pKi >= 8 else false

Solved entries:
S=C(NC1CCCCC1)N1CCC(c2cnc[nH]2)CC1 [Thioperamide]; false
NC(=NCc1ccc(Cl)cc1)SCCCc1cnc[nH]1; true
CNCCc1c[nH]cn1; false
N=C(N)SCCc1cnc[nH]1; false

Turning now to a further record.
Entry NCCc1c[nH]cn1 : is its pKi no less than 8?
false

###

molecular target: rat histamine H4 receptor (Rattus norvegicus, UniProt Q91ZY1); assay: biochemical
Sequence (Q91ZY1 whole entry): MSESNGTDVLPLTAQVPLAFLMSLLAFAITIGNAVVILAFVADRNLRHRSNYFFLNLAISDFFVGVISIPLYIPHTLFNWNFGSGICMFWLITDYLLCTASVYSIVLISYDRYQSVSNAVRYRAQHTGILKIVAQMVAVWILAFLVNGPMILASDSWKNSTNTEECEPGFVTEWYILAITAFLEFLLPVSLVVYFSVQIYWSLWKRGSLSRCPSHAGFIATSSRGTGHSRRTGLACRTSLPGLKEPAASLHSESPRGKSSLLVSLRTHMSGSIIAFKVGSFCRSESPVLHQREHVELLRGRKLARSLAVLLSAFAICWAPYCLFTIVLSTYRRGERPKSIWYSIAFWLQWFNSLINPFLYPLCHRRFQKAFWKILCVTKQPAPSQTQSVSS
readoutLabel: Ki

Some entries whose results are on file:
NC(=NCc1ccc(Cl)cc1)SCCCc1cnc[nH]1; 63 nM
N=C(N)SCCc1cnc[nH]1; 6.8 nM

Please look up its Ki: CNCCc1c[nH]cn1
552 nM
